As shown below, each of these compounds has a reported Population Mitotic Cells (%) value.
system: U2OS; experiment: Multiplex assay against U2OS; format: toxicity, cell-based; conditions: human, 12 h, 10 µM, compound concentration 10 uM, replicate 2
Express it in %; write the number only.

- Compound: "CCCCCNC(=N)N/N=C/c1c[nH]c2ccc(OC)cc12.O=C(O)/C=C\\C(=O)O [TEGASEROD MALEATE]"
  Tgt: "U2OS"
  Readout label: "Population Mitotic Cells (%)"
  Observed: 0
- Compound: "CC(C)c1cc(Nc2nc(N3CCC[C@H](N)C3)ncc2C(N)=O)cc(C(C)C)n1"
  Tgt: "U2OS"
  Readout label: "Population Mitotic Cells (%)"
  Observed: 34

query: // fetch U2OS Population Mitotic Cells (%) for c1ccc(-c2oc3ncnc(NC[C@@H]4CCCO4)c3c2-c2ccccc2)cc1
result: 12

* * *

As shown below, each of these compounds has a reported Population Apoptotic (%) value.
system: Fibroblast; test: Multiplex assay against human fibroblast; assay type: toxicity, cell-based; settings: 12 h, 1 µM, compound concentration 1 uM, replicate 2

Here's what some known entries look like.
- Compound: "C[C@@H](Oc1cc(-n2cnc3ccc(CN4CCN(C)CC4)cc32)sc1C(N)=O)c1ccccc1C(F)(F)F"
  Population Apoptotic (%): "12%"
- Compound: "Cc1c(P(=S)(c2ccccc2)c2ccccc2)n2ccccc2[n+]1C/C=C/c1ccccc1.[Br-]"
  Population Apoptotic (%): "75%"
- Compound: "Cc1c(Nc2ccc(S(=O)(=O)N3CCN(C)CC3)cc2F)nc2ccc(-c3cnn(C4CC4)c3)cn2c1=O"
  Population Apoptotic (%): "50%"
- Compound: "CCCCCNC(=N)N/N=C/c1c[nH]c2ccc(OC)cc12.O=C(O)/C=C\\C(=O)O [TEGASEROD MALEATE]"
  Population Apoptotic (%): "20%"

Proceed to the following item.
query: Give the measured Population Apoptotic (%) of Cc1ccc(S(=O)(=O)NC2c3ccccc3Oc3ccccc32)cc1 .
result: 0%

* * *

system: HEK-293T; assay: Multiplex assay against HEK293T; assay type: toxicity, cell-based; conditions: human, 24 h, 10 µM, compound concentration 10 uM, replicate 2
Readout label: Population Mitotic Cells (%)
Express it in %; write the number only.

- Compound: "N#Cc1cccc(C(=O)Nc2cc(-c3ccccc3)nn2-c2ccccc2)c1"
  Tgt: "HEK-293T"
  Population Mitotic Cells (%): 33
- Compound: "CC(Cc1ccc(O)c(O)c1)C(C)Cc1ccc(O)c(O)c1 (stereo not drawn) [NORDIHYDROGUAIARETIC ACID]"
  Tgt: "HEK-293T"
  Population Mitotic Cells (%): 83
- Compound: "CCCCCNC(=N)N/N=C/c1c[nH]c2ccc(OC)cc12.O=C(O)/C=C\\C(=O)O [TEGASEROD MALEATE]"
  Tgt: "HEK-293T"
  Population Mitotic Cells (%): 2
- Compound: "Cc1ccc(S(=O)(=O)NC2c3ccccc3Oc3ccccc32)cc1"
  Tgt: "HEK-293T"
  Population Mitotic Cells (%): 82
- Compound: "CCOc1ccn(-c2ccc(F)cc2)c(=O)c1C(=O)Nc1ccc(Oc2ccnc(N)c2Cl)c(F)c1"
  Tgt: "HEK-293T"
  Population Mitotic Cells (%): 91

query: Give the measured Population Mitotic Cells (%) of CC[C@@H]1C(=O)N(C)c2cnc(Nc3ccc(C(=O)NC4CCN(C)CC4)cc3OC)nc2N1C1CCCC1 .
result: 88

query: Give the measured Population Mitotic Cells (%) of CC[C@H](Nc1ncnc2[nH]cnc12)c1nc2cccc(F)c2c(=O)n1-c1ccccc1 .
result: 96

query: Give the measured Population Mitotic Cells (%) of CC(/C=C1\SC(=S)N(CCCC(=O)Nc2ccc(C(=O)O)c(O)c2)C1=O)=C\c1ccccc1 .
result: 92
